- experimental-setup: clostridioides difficile, 12 h, 2 µM
measure-name: Bacterial Biotransformation

Would you please look over these solved cases?
CC(C)NCC(O)COc1ccc(CCOCC2CC2)cc1 (stereo not drawn) : Compound NOT metabolized
COC(=O)Nc1nc2ccc(C(=O)c3ccccc3)cc2[nH]1 : Compound NOT metabolized
Cc1nc(-c2ccc(OCC(C)C)c(C#N)c2)sc1C(=O)O : Compound NOT metabolized
Br.NC(=O)C(c1ccccc1)(c1ccccc1)[C@@H]1CCN(CCc2ccc3c(c2)CCO3)C1 [DARIFENACIN HYDROBROMIDE] : Compound NOT metabolized
CC(C)NCC(O)COc1ccc(CC(N)=O)cc1 (stereo not drawn) : Compound NOT metabolized

For every record below, what is its Bacterial Biotransformation?
1. CNCC[C@H](Oc1cccc2ccccc12)c1cccs1
2. CC(C)OC(=O)C(C)(C)Oc1ccc(C(=O)c2ccc(Cl)cc2)cc1 [FENOFIBRATE]
3. COc1ccccc1OCCNCC(O)COc1cccc2[nH]c3ccccc3c12 (stereo not drawn)
4. CC(C)(C(=O)O)c1ccc(C(O)CCCN2CCC(C(O)(c3ccccc3)c3ccccc3)CC2)cc1 (stereo not drawn) [FEXOFENADINE]
5. CCOc1cc(CC(=O)N[C@@H](CC(C)C)c2ccccc2N2CCCCC2)ccc1C(=O)O [REPAGLINIDE]
6. O=C([O-])C[C@H](O)C[C@H](O)/C=C/c1c(C2CC2)nc2ccccc2c1-c1ccc(F)cc1.O=C([O-])C[C@H](O)C[C@H](O)/C=C/c1c(C2CC2)nc2ccccc2c1-c1ccc(F)cc1.[Ca+2]

1: Compound metabolized; 2: Compound metabolized; 3: Compound NOT metabolized; 4: Compound NOT metabolized; 5: Compound NOT metabolized; 6: Compound NOT metabolized

For every record below, what is its Bacterial Biotransformation?
1. CN/C(=N/CCSCc1nc[nH]c1C)NC#N
2. c1ccc([C@H]2CN3CCSC3=N2)cc1
3. C[C@@H]1CC[C@H]2[C@@H](C)C(=O)O[C@@H]3O[C@@]4(C)CC[C@@H]1[C@]32OO4
4. CC1Cc2ccccc2N1NC(=O)c1ccc(Cl)c(S(N)(=O)=O)c1 (stereo not drawn) [INDAPAMIDE]
5. CCCCC1=NC2(CCCC2)C(=O)N1Cc1ccc(-c2ccccc2-c2nnn[nH]2)cc1
6. COc1ccc2cc([C@H](C)C(=O)O)ccc2c1

["Compound NOT metabolized", "Compound metabolized", "Compound metabolized", "Compound NOT metabolized", "Compound NOT metabolized", "Compound NOT metabolized"]

Identify Bacterial Biotransformation associated with the compound CC(C)(C)NC[C@H](O)COc1nsnc1N1CCOCC1.O=C(O)/C=C\C(=O)O [TIMOLOL MALEATE]
Compound NOT metabolized

====

- test-protocol: The drug is tested on Bacteroides uniformis strain: ATCC8492 for biotransformation. The drug concentrations were measured before and after a 12-h incubation by liquid-chromatography-coupled mass spectrometry (LC–MS)
- experimental-setup: 2 µM
Non-standard residues stand in square brackets, D forms with d. Residues, ends and D or L forms follow the SMILES beside them. pGlu = O=C1CC[C@@H](C(=O)O)N1; Thz = O=C(O)[C@@H]1CSCN1
measure-name: Bacterial Biotransformation

Would you please look over these solved cases?
CNNCc1ccc(C(=O)NC(C)C)cc1 : Compound NOT metabolized
O=C1CC[C@@H](C(=O)N2CSC[C@H]2C(=O)O)N1 [PIDOTIMOD] ([pGlu]-[Thz]-OH) : Compound metabolized
Nc1nnc(-c2cccc(Cl)c2Cl)c(N)n1 : Compound NOT metabolized
CN(C)CCc1c[nH]c2ccc(CS(=O)(=O)N3CCCC3)cc12 : Compound NOT metabolized
COC(=O)Nc1nc2ccc(C(=O)c3ccccc3)cc2[nH]1 : Compound metabolized
CN[C@H]1CC[C@@H](c2ccc(Cl)c(Cl)c2)c2ccccc21 : Compound NOT metabolized
CC(C)(C)N.CCC[C@H](N[C@@H](C)C(=O)N1[C@H](C(=O)O)C[C@@H]2CCCC[C@@H]21)C(=O)OCC : Compound NOT metabolized
Nc1ccc(/N=N/c2ccccc2)c(N)n1 : Compound metabolized

Now consider a different compound.
Identify Bacterial Biotransformation associated with the compound `c1ccc([C@H]2CN3CCSC3=N2)cc1`
Compound metabolized

# credit: ChEMBL document CHEMBL5303573
